# Test system: GCaMP5-expressing T. gondii
# Construct: whole extracellular parasites expressing GCaMP5 Ca2+ sensor
# Set-up: species or system GCaMP5-expressing Toxoplasma gondii, extracellular; GCaMP5 fluorescence (cytosolic Ca2+) after 100 uM zaprinast in compound-pretreated extracellular parasites, background-subtracted, relative to zaprinast alone
# Setup Conditions: 100 uM zaprinast stimulation; 10 min pretreatment; mean of two replicates; 0.23 h
# true (1) = fold change in fluorescence relative to zaprinast alone below 0.9 (exclusive); false (0) = fold change in fluorescence relative to zaprinast alone at/above 0.9

[[record]]
molecule = "Nc1ncnc2c1ncn2-c1cccc(F)c1"
classification = "false (0)"

[[record]]
molecule = "FC(F)(F)c1cccc(Nc2nccc(-c3cnn4nc(-c5ccccc5)ccc34)n2)c1 [GW819077X]"
classification = "true (1)"

[[record]]
molecule = "CN(C)c1ccc2c(c1)/C(=C/Nc1ccc(S(N)(=O)=O)cc1)C(=O)N2 [GW416469X]"
classification = "false (0)"


Moving on to another molecule below.
Q) hey, is fold change in fluorescence relative to zaprinast alone for COc1ccc(Nc2nccc(NCCNC(=O)c3cc4ccccc4s3)n2)cc1 [GSK1379896A] lower than 0.9 or not?
A) false (0)

* * *

# Tested on: GCaMP5-expressing T. gondii
# Construct: whole extracellular parasites expressing GCaMP5 Ca2+ sensor
# Parameters: species or system GCaMP5-expressing Toxoplasma gondii, extracellular; GCaMP5 fluorescence (cytosolic Ca2+) after 100 uM zaprinast in compound-pretreated extracellular parasites, background-subtracted, relative to zaprinast alone
# Setup Conditions: 100 uM zaprinast stimulation; 10 min pretreatment; mean of two replicates; 0.23 h
Measurement Name: fold change in fluorescence relative to zaprinast alone
Just the number, please.

Q) Can you share its fold change in fluorescence relative to zaprinast alone? I mean this compound: Nc1[nH]nc2ncc(-c3ccccc3)cc12
A) 0.8708

* * *

# Tested on: GCaMP5-expressing T. gondii
# Construct: whole extracellular parasites expressing GCaMP5 Ca2+ sensor
# Set-up: species or system GCaMP5-expressing Toxoplasma gondii, extracellular; GCaMP5 fluorescence (cytosolic Ca2+) after 100 uM zaprinast in compound-pretreated extracellular parasites, background-subtracted, relative to zaprinast alone
# Setup Conditions: 100 uM zaprinast stimulation; 10 min pretreatment; mean of two replicates; 0.23 h
# Method: GCaMP5-expressing parasites were suspended in Ringer's solution at 4 × 10^7 parasites/ml, and 50 μl of parasites were applied to each well of a 96-well plate (Costar, catalog no. 3631). […] Parasites were then treated with 100 μM zaprinast or 0.1% DMSO as a vehicle control and incubated at 37 °C with 5% CO2 for an additional 4 min before measuring fluorescence with excitation and emission wavelengths of 485 and 525 nm, respectively, on a SpectraMax M3 (Molecular Devices). […]
Measurement Name: fold change in fluorescence relative to zaprinast alone
Answer as a number with no unit attached.

Example molecules with recorded fold change in fluorescence relative to zaprinast alone:
[[record]]
molecule = "COC(=O)Nc1nc2ccc(Oc3ccc(NC(=O)Nc4cc(C(F)(F)F)ccc4Cl)cc3)cc2[nH]1 [GW697465A]"
experimental_value = 0.849

[[record]]
molecule = "Cc1ccc(NC(=O)Nc2ccc(Cl)c(C(F)(F)F)c2)cc1-c1ccc(C(=O)Nc2ccncc2)cc1 [GSK1398470A]"
experimental_value = 0.581

[[record]]
molecule = "CNC(=O)c1sc(-n2cnc3cc(OC)c(OC)cc32)cc1OCc1ccccc1C(F)(F)F [GSK1030061A]"
experimental_value = 1.028


Q) Dear colleague, I am looking for the recorded fold change in fluorescence relative to zaprinast alone of the following molecule: CN(c1ccc(NC(=O)NCCN2CCOCC2)cc1)c1ccnc(Nc2ccc(CS(C)(=O)=O)cc2)n1 [GW830365A]
A) 1.217

* * *

# System: GCaMP5-expressing T. gondii
# Construct: whole extracellular parasites expressing GCaMP5 Ca2+ sensor
# Design: species or system GCaMP5-expressing Toxoplasma gondii, extracellular; GCaMP5 fluorescence (cytosolic Ca2+) after 100 uM zaprinast in compound-pretreated extracellular parasites, background-subtracted, relative to zaprinast alone
# Setup Conditions: 100 uM zaprinast stimulation; 10 min pretreatment; mean of two replicates; 0.23 h
Measurement Name: fold change in fluorescence relative to zaprinast alone
Lab note: jot the number down without any unit.

[[record]]
compound = "Nc1nccc(-c2c(-c3ccc(F)cc3)ncn2CCCN2CCOCC2)n1 [SB-216385]"
experimental_value = 1.045

[[record]]
compound = "Nc1nc(-c2ccc3c(N)n[nH]c3c2)cc(N2CCCC(NC(=O)c3ccccc3)C2)n1 (stereo not drawn) [GSK2286775B]"
experimental_value = 1.202

[[record]]
compound = "CC1=C(C(=O)Nc2ccc3[nH]ncc3c2)C(c2ccc3ccccc3c2)CC(=O)N1 (stereo not drawn) [GSK270822A]"
experimental_value = 1.167

[[record]]
compound = "Cc1ccc2c(-c3ccncc3)c(-c3ccc(F)cc3)nn2c1 [GW461484A]"
experimental_value = 0.2133

[[record]]
compound = "O=C(Nc1n[nH]c2cc(-c3cccs3)ccc12)C1CC1 [SB-731284]"
experimental_value = 1.194

[[record]]
compound = "CC(C)S(=O)(=O)N1CCN(Cc2ccc3c(c2)nc(NC(=O)c2ccsc2)n3C[C@H](O)c2ccccc2)CC1 [GW635815X]"
experimental_value = 1.196


Q) For COc1ccc(CNC(=O)NC2CCN(c3ccnc(Nc4ccc(F)cc4)n3)CC2)cc1 [GSK1379788A] , what is its reported fold change in fluorescence relative to zaprinast alone?
A) 1.01

Q) Returns the measured fold change in fluorescence relative to zaprinast alone for the input compound. Input: O=C(Nc1ccc2c(c1)OCO2)NC1CCN(c2ccnc(Nc3ccc(F)cc3)n2)C1 (stereo not drawn) [GSK1379724A]
A) 0.9401

Q) Which fold change in fluorescence relative to zaprinast alone reading was recorded for the compound NC(=O)c1cc(-c2ccncc2)cc(-c2ccccc2)c1N [GSK625137A] ?
A) 1.053

Q) Give its fold change in fluorescence relative to zaprinast alone value. Item: CS(=O)(=O)CCNCc1ccc(-c2ccc3ncnc(Nc4ccc(OCc5ccccc5)cc4)c3c2)o1 [GW458787A]
A) 0.4223

Q) I would be grateful if you could share the reported fold change in fluorescence relative to zaprinast alone for COc1cc2ncnc(Nc3ccc(C)c(O)c3)c2cc1OC [GW410563A] .
A) 1.297

* * *

# maps each entry to its fold change in fluorescence relative to zaprinast alone
# Tested on: GCaMP5-expressing T. gondii
# Construct: whole extracellular parasites expressing GCaMP5 Ca2+ sensor
# Design: species or system GCaMP5-expressing Toxoplasma gondii, extracellular; GCaMP5 fluorescence (cytosolic Ca2+) after 100 uM zaprinast in compound-pretreated extracellular parasites, background-subtracted, relative to zaprinast alone
# Setup Conditions: 100 uM zaprinast stimulation; 10 min pretreatment; mean of two replicates; 0.23 h
No unit in the answer, only the number.

Some compounds with known fold change in fluorescence relative to zaprinast alone results, for comparison:
[[record]]
compound = "CCn1c(-c2nonc2N)nc2c(C#CC(C)(C)O)ncc(OCCCCN)c21 [GSK507274A]"
experimental_value = 1.063

[[record]]
compound = "NS(=O)(=O)c1ccc(N/N=C2\\C(=O)Nc3ccc(Cl)cc32)cc1 [GW280670X]"
experimental_value = 0.9881

[[record]]
compound = "Nc1ncc(-c2ccc3nccc(-c4ccncc4)c3c2)cc1S(=O)(=O)N1CCCCC1 [GSK1693850A]"
experimental_value = 0.1427

[[record]]
compound = "Nc1ncc(-c2ccc3nccc(-c4ccncc4)c3c2)cc1S(=O)(=O)N1CCOCC1 [GSK1627798A]"
experimental_value = 1.041

[[record]]
compound = "CCCN1CCC(Oc2cc(Nc3nc(Nc4cccc(F)c4C(N)=O)c4cc[nH]c4n3)c(OC)cc2Cl)CC1 [GSK1713088A]"
experimental_value = 1.364


Q) Would you kindly share the measured fold change in fluorescence relative to zaprinast alone for CN1CCN(Cc2cccc(-c3ccc4c(Nc5ccc(Oc6ccccc6)cc5)ccnc4c3)c2)CC1 [GW578342X] ?
A) 1.603

Q) For the compound shown here, COc1cc(N2CCN(C(C)C)CC2)ccc1Nc1nc(Nc2ccc(F)cc2C(=O)NC[C@@H](O)CO)c2cc[nH]c2n1 [GSK1392956A] , give the reported fold change in fluorescence relative to zaprinast alone.
A) 1.138

Q) # get_value(readout='fold change in fluorescence relative to zaprinast alone', item= O=C(Nc1n[nH]c2cc(-c3ccccc3F)ccc12)C1CC1 )
A) 0.8641

Q) # get_value(readout='fold change in fluorescence relative to zaprinast alone', item= COc1cc(Nc2ncc(-c3ccccc3)o2)cc(OC)c1OC [GW627512B] )
A) 0.9208

Q) If you can, please state the reported fold change in fluorescence relative to zaprinast alone value of N#Cc1cnc2cc(-c3cnc(CNCCN4CCOCC4)s3)ccc2c1Nc1ccc(Oc2ccccc2)cc1 [GW664114X] .
A) 1.528

Q) I would be grateful if you could share the reported fold change in fluorescence relative to zaprinast alone for O=C1Nc2ccc(-c3cccnc3)cc2C1=Cc1cc(Br)c(O)c(Br)c1 [GW429374A] .
A) 1.179

Q) Looking for the measured fold change in fluorescence relative to zaprinast alone of CC1=C(C(=O)Nc2ccc3[nH]ncc3c2)C(c2ccc(F)cc2)N=C(c2ccc(C(F)(F)F)nc2)N1 (centres unmarked) [GSK317354A] , can you help?
A) 1.324

Q) Bench note: what fold change in fluorescence relative to zaprinast alone did Fc1ccc(-c2ncn(CCCN3CCOCC3)c2-c2ccccn2)cc1 show?
A) 1.072

Q) Field request: fold change in fluorescence relative to zaprinast alone | item: COc1cc2ncn(-c3cc(OCCc4ccccc4)c(C(N)=O)s3)c2cc1OC [GSK204925A]
A) 0.9795

Q) Given the entry Cc1ccc(CC(=O)N2CCc3cc(-c4cn(C)c5ncnc(N)c45)ccc32)cc1 [GSK2634758A] , report its measured fold change in fluorescence relative to zaprinast alone.
A) 1.068

Q) Requested read-out: fold change in fluorescence relative to zaprinast alone. Entry: O=S(=O)(CCNCc1ccc(-c2ccc3ncnc(Nc4ccc(OCc5cccc(F)c5)c(Cl)c4)c3c2)o1)c1ccccc1 [GW633459A]
A) 1.016

Q) Name the reported fold change in fluorescence relative to zaprinast alone value associated with the compound Cc1ccc(C)c(NC(=O)Nc2ccc(C)c(-c3ccc(C(=O)Nc4ccncc4)cc3)c2)c1 [GSK1398473A]
A) 1.092
